Molecular target: binding of LPS to monocytes
Assay: Inhibition of FITC-LPS binding to monocytes (flow cytometry)
Type: cell-based, human
Conditions: FITC-LPS 2.5 ng/ml, 30 ng/ml recombinant LBP, mononuclear cells of healthy volunteers, 30 minutes at 37° C.; read-out: 50% inhibition concentration
Procedure: 2.1 Materials and method LPS of Salmonella Re595 (ReLPS, supra) is labelled with FITC (Sigma; F7250) under conditions in which LPS is present as monomer, resulting in a FITC-LPS preparation with a ratio of 1 molecule FITC per molecule PLS. After extension desalting and dialysis against PBS, the stock solution of FITC-LPS is stored at −20° C. […] With LysisII™ software (Beckton & Dickinson) the average fluorescence value of 5000 monocytes is calculated. […]
METRIC_NAME: IC50 (µM)
Write down the numeric answer in µM and omit the unit.

# example entries with known answers
1) SAP fragment, amino acids 30-37: Leu Gln Asn Phe Thr Leu Cys Phe, SEQ ID NO 4 (LQNFTLCF; Fragment of the Serum Amyloid P component, peptide 30-37) [PEP 30-37]	4.5
2) SAP fragment, amino acids 32-39: Asn Phe Thr Leu Cys Phe Arg Ala, SEQ ID NO 3 (NFTLCFRA; Fragment of the Serum Amyloid P component, peptides 32-39) [PEP 32-39]	2
3) SAP fragment, amino acids 27-39: Glu Lys Pro Leu Gln Asn Phe Thr Leu Cys Phe Arg Ala, SEQ ID NO 1 (EKPLQNFTLCFRA; Fragment of the Serum Amyloid P component, peptides 27-39; listed as Homo sapiens) [PEP 27-39]	0.1

Next, consider the following substance.
Reported IC50, substance SAP fragment, amino acids 29-36: Pro Leu Gln Asn Phe Thr Leu Cys, SEQ ID NO 5 (PLQNFTLC; Fragment of the Serum Amyloid P component, peptide 29-36) [PEP 29-36] : ____ 6.5
